system: RAW-Dual; assay: NF-kB SEAP reporter activity, fold change vs agonist alone; cytotoxicity flag (confluency mask): not cytotoxic; higher = enhanced NF-kB activity; conditions: agonist: LPS (TLR4) 0.1 ug/mL
Over roughly 2,900 compounds, “NF-kB SEAP reporter activity, fold change vs agonist alone” has its median near 0.99; the highest 2% begin near 2.6. The entries come from a sample that favours the highest values as a whole.
Here the recorded NF-kB SEAP reporter activity is given for each entry.

IN: Input COc1cnc(NS(=O)(=O)c2ccc(N)cc2)nc1 (library stock concentration (final ~1000-fold dilution): 10 mM) , output reported NF-kB SEAP reporter activity.
OUT: 1.22

###

test system: RAW-Dual; assay: NF-kB SEAP reporter activity, fold change vs agonist alone; cytotoxicity flag (confluency mask): not cytotoxic; higher = enhanced NF-kB activity; conditions: agonist: Pam2CSK4 (TLR2/6) 0.1 ug/mL
In all, about 2,900 compounds were measured (“NF-kB SEAP reporter activity, fold change vs agonist alone”: median about 0.99, highest 2% from about 2.6 on). Many of the other results were omitted from the sample, so the highest values are more common in it than they were.
# NF-kB SEAP reporter activity listing for each entry below
Enter the number alone.

Some entries whose results are on file:
Compound	NF-kB SEAP reporter activity
COC(=O)C1=C(C)NC(C)=C(C(=O)OCC(C)C)C1c1ccccc1[N+](=O)[O-] (stereo unspecified) (library stock concentration (final ~1000-fold dilution): 10 mM)	0.675
CCCC(=O)OCOC(=O)C1=C(C)NC(C)=C(C(=O)OC)C1c1cccc(Cl)c1Cl (stereo unspecified) (library stock concentration (final ~1000-fold dilution): 10 mM)	0.911
CN(C)CCCNC(=O)c1ccc(-c2cc(O)c3ncccc3c2)cc1 (library stock concentration (final ~1000-fold dilution): 10 mM)	1.13
CCOC(=O)NCCCC(=O)NCCc1ccccc1 (library stock concentration (final ~1000-fold dilution): 10 mM)	1.17
COC(=O)C1=C(C)NC(C)=C(C(=O)OC)C1c1ccccc1[N+](=O)[O-] (library stock concentration (final ~1000-fold dilution): 10 mM)	1.5

Let us examine a further case.
IN: # lookup: RAW-Dual NF-kB SEAP reporter activity, key = NCC(O)(c1ccc(Cl)cc1)c1ccc(-c2cn[nH]c2)cc1 (stereo unspecified) (library stock concentration (final ~1000-fold dilution): 10 mM)
OUT: 0.236

###

tested on: RAW-Dual; assay: NF-kB SEAP reporter activity, fold change vs agonist alone; cytotoxicity flag (confluency mask): not cytotoxic; higher = enhanced NF-kB activity; details: agonist: Pam3CSK4 (TLR2/1) 0.1 ug/mL
The full ranking holds about 2,900 compounds; the median of “NF-kB SEAP reporter activity, fold change vs agonist alone” is about 0.99, and the highest 2% start at about 2.6. Shown is part of a subset that was picked to be rich in the highest values.
Labels assigned by NF-kB SEAP reporter activity range: lo = under 0.8, mid = from 0.8 up to 1, hi = 1 and over

Compound	Qualitative label
CC(C)(NS(=O)(=O)c1ccc2c(Cl)cnc(NC(=N)N)c2c1)C(=O)O.Cl (library stock concentration (final ~1000-fold dilution): 10 mM)	lo

IN: Category of COc1ccc2cc(-c3[nH]c(-c4ccc(S(C)=O)cc4)nc3-c3ccncc3)ccc2c1 (stereo not given) (library stock concentration (final ~1000-fold dilution): 10 mM) , please.
OUT: hi

IN: Band of CC(C)C(NC(=O)C(CC(=O)O)NC(=O)C(CCCCN)NC(=O)C(N)CCCNC(=N)N)C(=O)NC(Cc1ccc(O)cc1)C(=O)O (stereo not given) (library stock concentration (final ~1000-fold dilution): 10 mM) ?
OUT: hi

IN: // bin(item) where item = CC(C)C1C(=O)NC(CCCNC(=N)N)C(=O)NCC(=O)NC(CC(=O)O)C(=O)NC(Cc2ccccc2)C(=O)N1C.O=C(O)C(F)(F)F (stereo not given) (library stock concentration (final ~1000-fold dilution): 10 mM)
OUT: mid

IN: Category of CCc1ccc(NC(=O)Nc2c[nH]c3ccccc23)cc1 (library stock concentration (final ~1000-fold dilution): 1 mM) :
OUT: lo

IN: Input O=P(O)(O)Oc1cccc2ccccc12 (library stock concentration (final ~1000-fold dilution): 10 mM) ; output its category
OUT: mid

IN: Assign a bin to COc1cc(C(=O)O)ccc1O (library stock concentration (final ~1000-fold dilution): 10 mM)
OUT: hi

IN: For the record COC1CC2CCC(C)C(O)(O2)C(=O)C(=O)N2CCCCC2C(=O)OC(C(C)CC2CCC(O)C(OC)C2)CC(=O)C(C)C=C(C)C(O)C(OC)C(=O)C(C)CC(C)C=CC=CC=C1C (stereo not given) (library stock concentration (final ~1000-fold dilution): .1 mM) , report the class its NF-kB SEAP reporter activity corresponds to.
OUT: hi

IN: Lab note: which band did CCN(CC)CCNC(=O)c1c(C)[nH]c(/C=C2\C(=O)Nc3ccc(F)cc32)c1C.O=C(O)CC(O)C(=O)O (library stock concentration (final ~1000-fold dilution): 10 mM) land in?
OUT: lo

IN: For COC1CC2CCC(C)C(O)(O2)C(=O)C(=O)N2CCCCC2C(=O)OC(C(C)CC2CCC(OC(=O)C(C)(CO)CO)C(OC)C2)CC(=O)C(C)C=C(C)C(O)C(OC)C(=O)C(C)CC(C)C=CC=CC=C1C (stereo not given) (library stock concentration (final ~1000-fold dilution): 10 mM) , which NF-kB SEAP reporter activity bin applies?
OUT: hi

IN: For the record CNC(=O)c1cccc(-c2ccc3c(N4CCOCC4C)nc(N4CCOCC4C)nc3n2)c1 (stereo not given) (library stock concentration (final ~1000-fold dilution): 10 mM) , report the class its NF-kB SEAP reporter activity corresponds to.
OUT: lo

IN: Each compound maps to one class by NF-kB SEAP reporter activity. Which class for COC1CC2CCC(C)C(O)(O2)C(=O)C(=O)N2CCCCC2C(=O)OC(C(C)CC2CCC(O)C(OC)C2)CC(=O)C(C)C=C(C)C(O)C(OC)C(=O)C(C)CC(C)C=CC=CC=C1C (stereo not given) (library stock concentration (final ~1000-fold dilution): 10 mM) ?
OUT: lo

IN: Sort into band: CC(C)NCC(O)COc1ccc(COCCOC(C)C)cc1.O=C(O)/C=C/C(=O)O (stereo not given) (library stock concentration (final ~1000-fold dilution): 10 mM)
OUT: hi

IN: For O=C(NC1=CC(=O)[C@@H]2O[C@@H]2[C@@H]1O)c1ccccc1O (library stock concentration (final ~1000-fold dilution): 10 mM) , which NF-kB SEAP reporter activity bin applies?
OUT: lo

IN: Form field 'band' for C=CC1(C)CC(OC(=O)CSCCN(CC)CC)C2(C)C(C)CCC3(CCC(=O)C32)C(C)C1O.O=C(O)/C=C/C(=O)O (stereo not given) (library stock concentration (final ~1000-fold dilution): 10 mM)
OUT: mid

IN: Hello team, could you let me know which band the following compound falls into: CC(=O)Oc1cc2c(cc1Cl)C(c1ccccc1C(=O)O)c1cc(Cl)c(OC(C)=O)cc1O2 (library stock concentration (final ~1000-fold dilution): 10 mM)
OUT: hi

IN: For this compound, which bin applies? N#CC1CC2CC2N1C(=O)C(N)C12CC3CC(CC(O)(C3)C1)C2.O (stereo not given) (library stock concentration (final ~1000-fold dilution): 10 mM)
OUT: hi

IN: # bin lookup: classify Br.CN(C)CCCC1(c2ccc(F)cc2)OCc2cc(C#N)ccc21 (stereo not given) (library stock concentration (final ~1000-fold dilution): 10 mM) by its NF-kB SEAP reporter activity
OUT: mid

###

tested on: RAW-Dual; experiment: NF-kB SEAP reporter activity, fold change vs agonist alone; cytotoxicity flag (confluency mask): cytotoxic (confluency <70% of control); higher = enhanced NF-kB activity; details: agonist: Pam2CSK4 (TLR2/6) 0.1 ug/mL
Whole data set: some 2,900 compounds, median “NF-kB SEAP reporter activity, fold change vs agonist alone” near 0.99, cut for the highest 2% near 2.6. This is one part of a sample in which the highest values are shown more often than they occur.
Property label: NF-kB SEAP reporter activity
Please give only the number in your answer, with no unit.

Compound	NF-kB SEAP reporter activity
Cc1sc2c(c1C)C(c1ccc(Cl)cc1)=N[C@@H](CC(=O)NCCCCCCCCNC(=O)COc1cccc3c1C(=O)N(C1CCC(=O)NC1=O)C3=O)c1nnc(C)n1-2 (some centres not stated) (library stock concentration (final ~1000-fold dilution): 10 mM)	1.74

IN: Give NF-kB SEAP reporter activity for the following compound: Cc1sc2c(c1C)C(c1ccc(Cl)cc1)=NC(CC(=O)NCCCCNC(=O)COc1cccc3c1C(=O)N(C1CCC(=O)NC1=O)C3=O)c1nnc(C)n1-2 (configuration not stated) (library stock concentration (final ~1000-fold dilution): 10 mM)
OUT: 1.99
